protocolDetails: Tumor homogenate activation efficiency, small cell lung cancer tissue (Example 28)
Type: in vitro ADME
conditionDescription: pH 5.0, 37° C., 2 h; Table 5
Description: Buffer preparation: 50 mM PH buffer (MES), 250 mM NaCl, pH adjusted to 5.0 with 0.5 M of sodium hydroxide. The polypeptide conjugate was prepared into a 1 mg/ml solution with pH 5.0 buffer, 100 μg of tumor tissue homogenate was added, (the tumor tissue homogenate was the homogenate of tumor tissues prepared with a Jingxin F6/10 handheld homogenizer), and the solution was placed at 37° C. for 2 h. […]
Where a SMILES comes first, the peptide text is derived from it. The star is where a group is joined. Belotecan = CC[C@@]1(O)C(=O)OCc2c1cc1n(c2=O)Cc2c-1nc1ccccc1c2CCN(C(C)C)*; X1 = CC[C@@]1(O)C(=O)OCc2c1cc1n(c2=O)Cc2c-1nc1ccccc1c2CCN(C1CCC1)*; Propanoyl(3-maleimido) = O=C1C=CC(=O)N1CCC(=O)*; PEG6 = NCCOCCOCCOCCOCCOCCOCCC(=O)O
# Percentage of release efficiency (%) Small cell lung cancer tissue (NCI-H841) annotations
readout: Percentage of release efficiency (%) Small cell lung cancer tissue (NCI-H841)

[
  {
    "compound": "CC[C@@]1(O)C(=O)OCc2c1cc1n(c2=O)Cc2c-1nc1ccccc1c2CCN(C(=O)CNC(=O)[C@H](Cc1ccccc1)NC(=O)CNC(=O)CNC(=O)CCOCCOCCOCCOCCOCCOCCNC(=O)CCN1C(=O)C=CC1=O)C(C)C [MI-6PEG-GGFG-Belotecan] ({Propanoyl(3-maleimido)-PEG6}-GGFG-Belotecan)",
    "measured": "77.3%"
  },
  {
    "compound": "CC[C@@]1(O)C(=O)OCC2=C1C=C1c3nc4ccccc4c(CCN(C(=O)OCc4ccc(NC(=O)[C@H](CC(N)=O)NC(=O)[C@H](C)NC(=O)[C@H](C)NC(=O)CCOCCOCCOCCOCCOCCOCCNC(=O)CCN5C(=O)C=CC5=O)cc4)C(C)C)c3CN1C2 [MI-6PEG-AAN-PAB-Belotecan]",
    "measured": "61.5%"
  },
  {
    "compound": "CC[C@@]1(O)C(=O)OCc2c1cc1n(c2=O)Cc2c-1nc1ccccc1c2CCN(C(=O)CNC(=O)[C@H](Cc1ccccc1)NC(=O)CNC(=O)CNC(=O)CCOCCOCCOCCOCCOCCOCCNC(=O)CCN1C(=O)C=CC1=O)C1CCC1 [MI-6PEG-GGFG-D7] ({Propanoyl(3-maleimido)-PEG6}-GGFG-X1)",
    "measured": "76.4%"
  }
]

###

Tested on: SKBR3 (breast cancer tissue)
protocolDetails: cells
Assay type: cell-based
conditionDescription: CCK8, 48 h; Table 6
Where a SMILES comes first, the peptide text is derived from it. The star is where a group is joined. NEt(2-(20S-CPT-7-yl)ethyl) = CCN(CCc1c2c(nc3ccccc13)-c1cc3c(c(=O)n1C2)COC(=O)[C@]3(O)CC)*; X1 = CC[C@@]1(O)C(=O)OCc2c1cc1n(c2=O)Cc2c-1nc1ccccc1c2CCN(C1CCC1)*; Propanoyl(3-maleimido) = O=C1C=CC(=O)N1CCC(=O)*; PEG6 = NCCOCCOCCOCCOCCOCCOCCC(=O)O
Mark true (1) only for IC50 Breast cancer tissue (SKBR3) values smaller than 0.05 µg/mL; exact matches and larger values are false (0).

[
  {
    "compound": "CCCCNCCc1c2c(nc3ccccc13)-c1cc3c(c(=O)n1C2)COC(=O)[C@]3(O)CC [D4]",
    "class": "false (0)"
  },
  {
    "compound": "CCN(CCc1c2c(nc3ccccc13)-c1cc3c(c(=O)n1C2)COC(=O)[C@]3(O)CC)C(=O)[C@H](CC(C)C)NC(=O)[C@H](CC(N)=O)NC(=O)[C@H](C)NC(=O)[C@H](C)NC(=O)CCOCCOCCOCCOCCOCCOCCNC(=O)CCN1C(=O)C=CC1=O [MI-6PEG-AANL-D2] ({Propanoyl(3-maleimido)-PEG6}-AANL-{NEt(2-(20S-CPT-7-yl)ethyl)})",
    "class": "false (0)"
  },
  {
    "compound": "CC[C@@]1(O)C(=O)OCc2c1cc1n(c2=O)Cc2c-1nc1ccccc1c2CCNC1CCCC1 [D8]",
    "class": "true (1)"
  },
  {
    "compound": "CC[C@@]1(O)C(=O)OCc2c1cc1n(c2=O)Cc2c-1nc1ccccc1c2CCN(C(=O)[C@H](CC(C)C)NC(=O)[C@H](CC(N)=O)NC(=O)[C@H](C)NC(=O)[C@H](C)NC(=O)CCOCCOCCOCCOCCOCCOCCNC(=O)CCN1C(=O)C=CC1=O)C1CCC1 [MI-6PEG-AANL-D7] ({Propanoyl(3-maleimido)-PEG6}-AANL-X1)",
    "class": "false (0)"
  }
]

###

protocolDetails: Homogenate activation efficiency, heart tissue (Examples 28, 37)
Format: in vitro ADME
conditionDescription: pH 5.0, 37° C., 2 h; Table 10
Where a SMILES comes first, the peptide text is derived from it. The star is where a group is joined. Belotecan = CC[C@@]1(O)C(=O)OCc2c1cc1n(c2=O)Cc2c-1nc1ccccc1c2CCN(C(C)C)*; X2 = CCCCN(CCc1c2c(nc3ccccc13)-c1cc3c(c(=O)n1C2)COC(=O)[C@]3(O)CC)*; X3 = CC[C@@]1(O)C(=O)OCc2c1cc1n(c2=O)Cc2c-1nc1ccccc1c2CCN(C1CC1)*; Propanoyl(3-maleimido) = O=C1C=CC(=O)N1CCC(=O)*; PEG6 = NCCOCCOCCOCCOCCOCCOCCC(=O)O
readout: Percentage of release efficiency (%) Heart tissue

[
  {
    "molecule": "CC[C@@]1(O)C(=O)OCc2c1cc1n(c2=O)Cc2c-1nc1ccccc1c2CCN(C(=O)[C@H](CC(C)C)NC(=O)[C@H](CC(N)=O)NC(=O)[C@H](C)NC(=O)[C@H](C)NC(=O)CCOCCOCCOCCOCCOCCOCCNC(=O)CCN1C(=O)C=CC1=O)C1CC1 [MI-6PEG-AANL-D6] ({Propanoyl(3-maleimido)-PEG6}-AANL-X3)",
    "measurementUnits": "%",
    "measured": 3
  },
  {
    "molecule": "CCCCN(CCc1c2c(nc3ccccc13)-c1cc3c(c(=O)n1C2)COC(=O)[C@]3(O)CC)C(=O)[C@H](CC(C)C)NC(=O)[C@H](CC(N)=O)NC(=O)[C@H](C)NC(=O)[C@H](C)NC(=O)CCOCCOCCOCCOCCOCCOCCNC(=O)CCN1C(=O)C=CC1=O [MI-6PEG-AANL-D4] ({Propanoyl(3-maleimido)-PEG6}-AANL-X2)",
    "measurementUnits": "%",
    "measured": 4
  },
  {
    "molecule": "CC[C@@]1(O)C(=O)OCc2c1cc1n(c2=O)Cc2c-1nc1ccccc1c2CCN(C(=O)[C@H](CC(C)C)NC(=O)[C@H](Cc1ccccc1)NC(=O)CNC(=O)CNC(=O)CCOCCOCCOCCOCCOCCOCCNC(=O)CCN1C(=O)C=CC1=O)C(C)C [MI-6PEG-GGFL-Belotecan] ({Propanoyl(3-maleimido)-PEG6}-GGFL-Belotecan)",
    "measurementUnits": "%",
    "measured": 1.8
  }
]
